Target: T1, Human FM3 (human, UniProt Q9HB89 1-426)
T1 construct: whole, on cells; Assayed as the membrane fraction of FM3-expressing CHO cells (1.2 mg/mL protein); also called NMUR1; FM3 receptor
T1 sequence (looked up): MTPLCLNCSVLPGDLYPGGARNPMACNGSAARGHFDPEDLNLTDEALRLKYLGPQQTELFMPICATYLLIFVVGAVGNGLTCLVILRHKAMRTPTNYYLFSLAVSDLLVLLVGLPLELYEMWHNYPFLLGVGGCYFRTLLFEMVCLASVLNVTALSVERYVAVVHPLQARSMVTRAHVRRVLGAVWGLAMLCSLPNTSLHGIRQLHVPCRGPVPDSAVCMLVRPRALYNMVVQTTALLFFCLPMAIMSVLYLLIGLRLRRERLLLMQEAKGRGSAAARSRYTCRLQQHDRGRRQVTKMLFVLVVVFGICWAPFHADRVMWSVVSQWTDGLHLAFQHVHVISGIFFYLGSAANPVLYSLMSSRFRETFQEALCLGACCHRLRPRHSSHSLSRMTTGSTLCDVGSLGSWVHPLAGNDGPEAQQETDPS
Test: displacement of 125I-NMU8 from human FM3 CHO membrane fraction; IC50 relative to NMU-8;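 note: binding reaction run for 70 min at 25 °C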
Non-standard residues stand in square brackets, D forms with d. No end group written: not given here. *: point of attachment. Acetyl(2-(piperazin-1-yl)) = O=C(CN1CCNCC1)*; PEG 30 kDa = methoxypolyethylene glycol 30k; 2Nal = N[C@@H](Cc1ccc2ccccc2c1)C(=O)O; NMeR = CN[C@@H](CCCNC(=N)N)C(=O)O; NMeA = CN[C@@H](C)C(=O)O; βAla = NCCC(=O)O
Parameter Measured: IC50 ratio

Example entries begin here.
INSERT INTO measurements (binder, parameter_measured, value_measured) VALUES
  ('[βAla]YFLF[NMeR]PRN-NH2 (N-terminus assumed; SMILES CC(C)C[C@H](NC(=O)[C@H](Cc1ccccc1)NC(=O)[C@H](Cc1ccc(O)cc1)NC(=O)CCN)C(=O)N[C@@H](Cc1ccccc1)C(=O)N(C)[C@@H](CCCNC(=N)N)C(=O)N1CCC[C@H]1C(=O)N[C@@H](CCCNC(=N)N)C(=O)N[C@@H](CC(N)=O)C(N)=O) [β-Ala0,NMeArg5-NMU-8 (Compound 13)]', 'IC50 ratio', '0.46 ratio to NMU-8 (=1)'),
  ('{PEG 30 kDa-βAla}-YFVFRPRN-NH2 (also called PEG-NH-β-Ala0,Val3-NMU-8) [PEG30k-NH-β-Ala0,Val3-NMU-8 (Compound D)]', 'IC50 ratio', '5.3 ratio to NMU-8 (=1)'),
  ('{Acetyl(2-(piperazin-1-yl))}-YWLFRARN-NH2 (SMILES CC(C)C[C@H](NC(=O)[C@H](Cc1c[nH]c2ccccc12)NC(=O)[C@H](Cc1ccc(O)cc1)NC(=O)CN1CCNCC1)C(=O)N[C@@H](Cc1ccccc1)C(=O)N[C@@H](CCCNC(=N)N)C(=O)N[C@@H](C)C(=O)N[C@@H](CCCNC(=N)N)C(=O)N[C@@H](CC(N)=O)C(N)=O, also called 2-(piperazin-1-yl)acetyl-[Trp2,Ala6]-NMU8) [NpipAc0,Trp2,Ala6-NMU-8 (Compound 20)]', 'IC50 ratio', '900 ratio to NMU-8 (=1)');

Now let's try a different one.
# input Looking for the measured IC50 ratio of {mPEG 20 kDa-Acetyl(2-(piperazin-1-yl))}-Y[2Nal]LFR[NMeA]RN-NH2 (X stands for Nal(2); also called PEG20k-NpipAc-Nal(2)2,NMeAla6-NMU8) [PEG20k-NpipAc0,Nal(2)2,NMeAla6-NMU-8 (Compound V)] , can you help?
# output 10000 ratio to NMU-8 (=1)
